study_system: Recombinant human mPGES-1 (Homo sapiens)
Construct: made in house; host or cells: CHO cells
Sequence (O14684 1-152): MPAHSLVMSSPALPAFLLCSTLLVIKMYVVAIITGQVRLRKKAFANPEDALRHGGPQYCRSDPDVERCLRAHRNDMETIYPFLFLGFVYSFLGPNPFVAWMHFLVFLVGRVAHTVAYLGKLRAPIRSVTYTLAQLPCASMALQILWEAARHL
assay_text: In-vitro mPGES-1 inhibitor screening (inhibition of PGE2 formation from PGH2, HTRF detection)
Format: biochemical
experimental_parameters: 1 μM test compound; crude microsomal fraction, 15 μM PGH2; read-out: Percentage inhibition at 1 μM
I'd appreciate it if you could supply inhibition at 1 µM values for the items below.
One number for each entry, in %.

- structure_as_smiles: "Cc1nc(Oc2cccc(C(F)(F)F)c2)c2cccc(NC(=O)c3c(Cl)ccc(CNC(=O)C(C)(C)C)c3F)c2n1"
  units: "%"
  quantitative_result: 97.9
- structure_as_smiles: "CC(C)C(=O)NCc1cnc(C(F)F)c(C(=O)Nc2cccc3c(NCC(F)(F)F)ncnc23)c1"
  units: "%"
  quantitative_result: 83.3
- structure_as_smiles: "CC1(C)CCC(Nc2ncnc3c(NC(=O)c4c(Cl)ccc(CNC(=O)C(C)(C)C)c4F)cccc23)CC1"
  units: "%"
  quantitative_result: 100
- structure_as_smiles: "CC(C)C(=O)NCc1cnc(C(F)F)c(C(=O)Nc2cccc3c(Oc4ccc(F)c(C(F)(F)F)c4)ccnc23)c1"
  units: "%"
  quantitative_result: 99.7
- structure_as_smiles: "Cc1nc(NC2CCC(F)(F)CC2)c2cccc(NC(=O)c3c(Cl)ccc(CNC(=O)C(C)(C)C)c3F)c2n1"
  units: "%"
  quantitative_result: 86.5

Could you tell me inhibition at 1 µM for each of these compounds? They are listed below.
1. Cc1ccc2c(Nc3cccc(C(F)(F)F)c3)ncnc2c1NC(=O)c1c(Cl)ccc(CNC(=O)C(C)(C)C)c1F
2. CC(C)(C)Nc1ncnc2c(NC(=O)c3cc(CNC(=O)C(C)(C)C)c(F)cc3Cl)cccc12

**A:**
1. 96.5
2. 100

====

study_system: Recombinant human mPGES-1 (Homo sapiens, UniProt O14684)
Construct: made in house; host or cells: CHO cells
assay_text: In-vitro mPGES-1 inhibitor screening (inhibition of PGE2 formation from PGH2, HTRF detection)
Assay type: biochemical
experimental_parameters: 1 μM test compound; crude microsomal fraction, 15 μM PGH2; read-out: Percentage inhibition at 1 μM
Protocol: In-Vitro Protocol for Screening of mPGES-1 Inhibitors: […] Inhibition of mPGES-1 enzyme activity was measured using the percent of reaction occurring in the positive control. […] The IC50 value was calculated from the concentration response curve by nonlinear regression analysis using GraphPad PRISM software.
measured_endpoint: inhibition at 1 µM (%)
One number for each entry, in %.

Worked cases, answers included:
- structure_as_smiles: "CC(C)C(=O)NCc1cnc(C(F)F)c(C(=O)Nc2cccc3c(NC(C)(C)C)ncnc23)c1"
  study_system: "Recombinant human mPGES-1 (Homo sapiens, UniProt O14684)"
  inhibition at 1 µM, %: 93.6
- structure_as_smiles: "CC(C)(C)C(=O)NCc1ccc(Cl)c(C(=O)Nc2cccc3c(Nc4cccc(C(F)(F)F)c4)nccc23)n1"
  study_system: "Recombinant human mPGES-1 (Homo sapiens, UniProt O14684)"
  inhibition at 1 µM, %: 95.8
- structure_as_smiles: "Cc1nc(Nc2cccc(C(F)(F)F)c2)c2cccc(NC(=O)c3c(Cl)ccc(CNC(=O)C(C)(C)C)c3F)c2n1"
  study_system: "Recombinant human mPGES-1 (Homo sapiens, UniProt O14684)"
  inhibition at 1 µM, %: 95.5
- structure_as_smiles: "Cc1nc(NC(C)C)c2cccc(NC(=O)c3c(Cl)ccc(CNC(=O)C(C)(C)C)c3F)c2n1"
  study_system: "Recombinant human mPGES-1 (Homo sapiens, UniProt O14684)"
  inhibition at 1 µM, %: 74.1
- structure_as_smiles: "CC(C)(C)C(=O)NCc1ccc(Cl)c(C(=O)Nc2cccc3c(O[C@H]4CC[C@H](C(F)(F)F)CC4)nccc23)c1F"
  study_system: "Recombinant human mPGES-1 (Homo sapiens, UniProt O14684)"
  inhibition at 1 µM, %: 99.2

List inhibition at 1 µM for every entry below, keeping the order given.
1. CC(C)(C)Nc1ncnc2c(NC(=O)c3c(Cl)ccc(CNC(=O)C(C)(C)CF)c3F)cccc12
2. CC(C)(C)C(=O)NCc1ccc(Cl)c(C(=O)Nc2cccc3c(Nc4cccc(C(F)(F)F)c4)ncnc23)c1F

**A:**
1: 100; 2: 99.4
